Origin of values: PubChem BioAssay (Tox21)

# Method Description: p53 small molecule agonists, cell-based qHTS assay with human liver microsomes: qHTS cell viability counter screen (AID 1963579); also: nearly all actives have a fitted effect of over 45% in size
# Stated Conditions: p53RE-bla HCT-116 viability, ATP luminescence, 16 h, HLM; series mostly up to 66 µM
Inconclusive results are not listed. The source made the active and inactive calls. Calls follow the shape of the full dose curve.
Observed Property: activity change, negative = cytotoxicity

Cc1ccc(C(C)NC(=O)[C@@H](NC(=O)OC(C)C)C(C)C)cc1 (some centres not stated) : inactive
CCCCC(CC)COCCC#N (configuration not stated) : inactive
Cc1ccc(C(=O)Nc2ccc(S(=O)(=O)O)c3cc(S(=O)(=O)O)cc(S(=O)(=O)O)c23)cc1NC(=O)c1cccc(NC(=O)Nc2cccc(C(=O)Nc3cc(C(=O)Nc4ccc(S(=O)(=O)O)c5cc(S(=O)(=O)O)cc(S(=O)(=O)O)c45)ccc3C)c2)c1 : inactive
N=C(N=C(N)N)N1CCOCC1 : inactive

Data request: Item under review: C1=C\CC/C=C\CC/C=C\CC/1 . Reported activity change, negative = cytotoxicity?
Data returned: inactive

Data request: Given the molecule C1CN(CCOCCN2CCOCC2)CCO1 , what is its reported activity change, negative = cytotoxicity?
Data returned: inactive

Data request: Field request: activity change, negative = cytotoxicity | item: O=c1cccc[nH]1
Data returned: inactive

Data request: Could you tell me which activity change, negative = cytotoxicity is on file for CC(C)CC(=O)O ?
Data returned: inactive

Data request: Field request: activity change, negative = cytotoxicity | item: O=C(O)CCCCCCCCCCC(=O)O
Data returned: inactive

Data request: Would you mind telling me what activity change, negative = cytotoxicity value was observed for Cn1c(=O)c2[nH]c(Br)nc2n(C)c1=O ?
Data returned: inactive
